- system under test: Polyunsaturated fatty acid 5-lipoxygenase (Homo sapiens)
- Sequence (P09917 whole entry): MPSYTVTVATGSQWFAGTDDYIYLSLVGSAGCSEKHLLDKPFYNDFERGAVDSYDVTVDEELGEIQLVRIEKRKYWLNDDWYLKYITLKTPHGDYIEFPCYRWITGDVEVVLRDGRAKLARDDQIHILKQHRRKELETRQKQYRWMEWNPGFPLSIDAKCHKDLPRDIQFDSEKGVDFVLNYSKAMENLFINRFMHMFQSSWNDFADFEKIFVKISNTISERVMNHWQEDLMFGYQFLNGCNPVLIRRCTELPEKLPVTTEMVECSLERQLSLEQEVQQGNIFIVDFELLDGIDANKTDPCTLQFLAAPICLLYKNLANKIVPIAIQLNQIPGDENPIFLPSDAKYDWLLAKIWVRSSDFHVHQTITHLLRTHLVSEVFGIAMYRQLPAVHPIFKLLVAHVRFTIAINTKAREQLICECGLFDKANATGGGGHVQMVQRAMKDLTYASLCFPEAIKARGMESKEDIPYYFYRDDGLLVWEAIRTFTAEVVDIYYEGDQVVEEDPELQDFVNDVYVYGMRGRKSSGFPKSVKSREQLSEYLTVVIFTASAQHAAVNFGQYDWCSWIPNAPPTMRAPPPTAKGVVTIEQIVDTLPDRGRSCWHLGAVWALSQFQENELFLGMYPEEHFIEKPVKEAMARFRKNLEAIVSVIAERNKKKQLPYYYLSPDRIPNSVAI
- assay explanation: Inhibition of human recombinant 5-lipoxygenase using arachidonic acid as substrate preincubated for 10 mins before substrate addition measured after 10 mins by HPLC analysis
// reported pIC50 per item
In plain terms, pIC50 is the concentration in mol/L turned into minus its base-10 logarithm.

# molecule, pIC50
measured = [
    ("OCCc1ccc(O)c(O)c1 [HYDROXYTYROSOL]", 4.89),
]

// switching to the query molecule
**Q:** I'd like to know its pIC50. The molecule in question is C/C=C(/C=O)[C@@H](CC=O)CC(=O)OCCc1ccc(O)c(O)c1
**A:** 5.70

* * *

- system under test: Polyunsaturated fatty acid 5-lipoxygenase (Homo sapiens) (UniProt P09917)
- Sequence (P09917 whole entry): as above
- assay explanation: Inhibition of human recombinant 5-lipoxygenase expressed in Escherichia coli Bl21 (DE3) using arachidonic acid as substrate preincubated at 10 uM for 10 mins before substrate addition measured after 10 mins by HPLC analysis
Listed here are compounds together with their documented inhibition.
Dear colleague, please return just the value in %, with no unit written.

Solved entries (count: 3):
# compound, assay result
measured = [
    ("C/C=C1/[C@H](O[C@@H]2O[C@H](CO)[C@@H](O)[C@H](O)[C@H]2O)OC=C(C(=O)OC)[C@H]1CC(=O)OCCc1ccc(O)c(O)c1", 35),
    ("C/C=C(/C=O)[C@@H](CC=O)CC(=O)OCCc1ccc(O)cc1", 48),
    ("C/C=C(/C=O)[C@@H](CC=O)CC(=O)OCCc1ccc(O)c(O)c1", 90),
]

**Q:** Value lookup for inhibition; key = OCCc1ccc(O)c(O)c1 [HYDROXYTYROSOL]
**A:** 48

**Q:** Let us now turn to OCCc1ccc(O)cc1
**A:** 20
